Target: Cytochrome P450 2C9 (Homo sapiens) (UniProt P11712)
Sequence (P11712 whole entry, looked up): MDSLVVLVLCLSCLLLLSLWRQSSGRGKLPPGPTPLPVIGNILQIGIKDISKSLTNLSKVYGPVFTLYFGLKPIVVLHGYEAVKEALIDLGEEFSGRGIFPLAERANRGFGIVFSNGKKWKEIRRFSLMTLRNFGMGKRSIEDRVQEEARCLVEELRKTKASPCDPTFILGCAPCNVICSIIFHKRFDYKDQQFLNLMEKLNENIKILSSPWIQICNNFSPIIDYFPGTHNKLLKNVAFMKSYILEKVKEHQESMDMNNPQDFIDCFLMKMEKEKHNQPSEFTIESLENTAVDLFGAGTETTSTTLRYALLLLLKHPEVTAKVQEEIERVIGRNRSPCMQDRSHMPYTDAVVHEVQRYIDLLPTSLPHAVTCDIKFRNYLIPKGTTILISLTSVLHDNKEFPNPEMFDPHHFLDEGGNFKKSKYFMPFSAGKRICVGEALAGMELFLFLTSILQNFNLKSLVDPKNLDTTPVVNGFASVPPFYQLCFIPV
Experiment: Cytochrome panel assay with activity outcomes; also: % is scaled to controls: 0 for no effect and ±100 for the full control effect
Conditions: recombinant CYP, pro-luciferin dealkylation, luminescence, p450-cyp2c9; series mostly up to 57.1 µM
Screen size: about 16,000 compounds; about 4,000 (25%) were called active. About 26% were inconclusive and are not listed. These entries were drawn from the full list.
Property Name: activity, negative = inhibition

Some solved cases for reference:
CCCCc1nc2ccccc2c(=O)n1-c1ccc(Cl)cc1[N+](=O)[O-]    inactive
O=C1OC(=O)[C@@H]2[C@@H]1[C@@H]1CC[C@H]2O1    inactive
Cc1nc2ccccc2c(=O)n1-n1cnnc1    inactive
N[C@H](CCCCCP(=O)(O)O)C(=O)O    inactive

Let us examine a further case.
For the compound CC(C)[C@]1(O)[C@@H](OC(=O)c2ccc[nH]2)[C@]2(O)[C@@]3(C)C[C@@]4(O)O[C@@]5([C@H](O)[C@@H](C)CC[C@]35O)[C@]2(O)[C@]41C , give its measured activity, negative = inhibition value. 13.6% [at 11.4 µM] (inactive)
